Target System: Serine/threonine-protein kinase PLK1 (Homo sapiens)
Method Description: PLK1 kinase inhibitor potency, dose response, biochemical, TR-FRET, IC50 (AID 785)
Condition Info: recombinant human Plk1, fluorescence polarization phosphopeptide binding, 3 h
Observable: IC50

[[record]]
smiles_data = "CC1CCN(c2ncnc3nc[nH]c23)CC1"
observable = "IC50"
observed_value = "3.13 µM"

[[record]]
smiles_data = "CCOc1c(Br)ccc2c1sc1nc[nH]c(=O)c12"
observable = "IC50"
observed_value = "2.15 µM"

[[record]]
smiles_data = "CCOc1ccc(N2Nc3n[nH]c(N)c3N2)cc1"
observable = "IC50"
observed_value = "3.4 µM"

[[record]]
smiles_data = "O=c1[nH]cnc2sc(-c3ccccc3)cc12"
observable = "IC50"
observed_value = "6.08 µM"

[[record]]
smiles_data = "O=c1[nH]cnc2scc(-c3cccs3)c12"
observable = "IC50"
observed_value = "4.24 µM"

[[record]]
smiles_data = "C=CCNc1nc(N)c(C(=O)c2ccc3c(c2)OCO3)s1"
observable = "IC50"
observed_value = "3.85 µM"

[[record]]
smiles_data = "Cc1[nH]nc2c1C1(CCN(Cc3ccccc3)CC1)C(C#N)=C(N)O2"
observable = "IC50"
observed_value = "1.4 µM"

[[record]]
smiles_data = "O=C(CSc1n[nH]c(-c2ccc(Cl)cc2Cl)n1)Nc1ccccn1"
observable = "IC50"
observed_value = "0.534 µM"

[[record]]
smiles_data = "COc1ccc(N2Nc3n[nH]c(N)c3N2)cc1"
observable = "IC50"
observed_value = "1.64 µM"

[[record]]
smiles_data = "COC(=O)c1sc2nc[nH]c(=O)c2c1C"
observable = "IC50"
observed_value = "1.44 µM"

[[record]]
smiles_data = "Nc1nc2ccc([N+](=O)[O-])c(N)c2s1"
observable = "IC50"
observed_value = "0.235 µM"

[[record]]
smiles_data = "NC(=O)c1ccc(C(F)(F)F)n(Cc2cccc(Cl)c2)c1=O"
observable = "IC50"
observed_value = "22.8 µM"

[[record]]
smiles_data = "NNc1ncnc2c1cnn2-c1ccccc1"
observable = "IC50"
observed_value = "4.18 µM"

